tested on: Aspergillus fumigatus; experiment: Antifungal activity against Aspergillus fumigatus after 7 days by micro-broth dilution method; format: functional; details: 168 h
Please go through the items and note down their MIC80.
Give bare numbers, in mg/L.

molecule="Cc1ccc(C(=O)Nc2ccc(N3CCN(CC(O)(Cn4cncn4)c4ccc(F)cc4F)CC3)c(F)c2)cc1 (stereo not drawn)" scale_unit=mg/L result_number=1
molecule="O=C(Nc1ccc(N2CCN(CC(O)(Cn3cncn3)c3ccc(F)cc3F)CC2)c(F)c1)c1cccc(Br)c1 (stereo not drawn)" scale_unit=mg/L result_number=4
molecule="Cc1ccccc1C(=O)Nc1ccc(N2CCN(CC(O)(Cn3cncn3)c3ccc(F)cc3F)CC2)c(F)c1 (stereo not drawn)" scale_unit=mg/L result_number=1
molecule="O=C(Nc1ccc(N2CCN(CC(O)(Cn3cncn3)c3ccc(F)cc3F)CC2)c(F)c1)c1ccccc1[N+](=O)[O-] (stereo not drawn)" scale_unit=mg/L result_number=1
molecule="O=C(Nc1ccc(N2CCN(CC(O)(Cn3cncn3)c3ccc(F)cc3F)CC2)c(F)c1)c1ccc(Cl)cc1 (stereo not drawn)" scale_unit=mg/L result_number=0.25

The following molecules each have a reported value; give each one's MIC80.
1. O=C(Nc1ccc(N2CCN(CC(O)(Cn3cncn3)c3ccc(F)cc3F)CC2)c(F)c1)c1ccc(OC(F)(F)F)cc1 (stereo not drawn)
2. COc1cccc(C(=O)Nc2ccc(N3CCN(CC(O)(Cn4cncn4)c4ccc(F)cc4F)CC3)c(F)c2)c1 (stereo not drawn)
3. Cc1ccc(C(=O)Nc2ccc(N3CCN(CC(O)(Cn4cncn4)c4ccc(F)cc4F)CC3)c(F)c2)cc1C (stereo not drawn)

## Output
1
1
1
